Entries and their IC50
system under test: wt human LRRK2, catalytic site (Homo sapiens, UniProt Q5S007)
Construct: wt human LRRK2, catalytic site; purchased ThermoFisher/USA
Sequence (Q5S007 1879-2138 limits assumed): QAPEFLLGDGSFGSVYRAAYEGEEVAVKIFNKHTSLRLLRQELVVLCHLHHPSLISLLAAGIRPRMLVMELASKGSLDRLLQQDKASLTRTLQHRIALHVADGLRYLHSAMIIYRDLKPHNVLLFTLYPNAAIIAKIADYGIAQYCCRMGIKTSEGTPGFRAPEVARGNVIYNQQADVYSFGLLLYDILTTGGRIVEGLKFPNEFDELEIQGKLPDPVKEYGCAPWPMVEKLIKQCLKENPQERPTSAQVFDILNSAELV
measurement protocol: TR-FRET LanthaScreen Tb Kinase Activity Assay (Example 71)
Format: biochemical
condition context: compounds of Table 4, 38 uM ATP, method names only wt human LRRK2, read-out: IC50, Inhibitory Activity Toward LRRK2 (Wt) and LRRK2 (G2019)

Observe how each entry below is paired with its result.
input: Consider the compound "Fc1cc(F)c(C2=Nc3cn[nH]c3-c3cnn4c3N2CC4)c(F)c1" and give its recorded IC50.
output: < 10 nM

input: Consider the compound C[C@H]1CCN2C(c3c(F)cccc3F)=Nc3cn[nH]c3-c3cnn1c32 (single isomer, unassigned) and give its recorded IC50.
output: < 10 nM

input: Consider the compound CC1CN2C(c3c(F)cccc3F)=Nc3cn[nH]c3-c3cnn(c32)C1 (centres unmarked) and give its recorded IC50.
output: < 10 nM

input: Consider the compound "Fc1cccc(Cl)c1C1=Nc2cn[nH]c2-c2cnn3c2N1CC3" and give its recorded IC50.
output: < 10 nM

input: Consider the compound "Cc1ccc(F)c(C2=Nc3c(C)n[nH]c3-c3cnn4c3N2CCC4)c1F" and give its recorded IC50.
output: < 10 nM

Continuing:
input: Consider the compound "COc1cc(F)c(C2=Nc3cn[nH]c3-c3cnn4c3N2CCC4)c(F)c1" and give its recorded IC50.
output: 10 to 100 nM

input: Consider the compound "Cc1cccc(F)c1C1=Nc2cn[nH]c2-c2cnn3c2N1CC3" and give its recorded IC50.
output: < 10 nM

input: Consider the compound "Fc1cccc(C(F)(F)F)c1C1=Nc2cn[nH]c2-c2cnn3c2N1CCC3" and give its recorded IC50.
output: 10 to 100 nM

input: Consider the compound "Cc1ccc(F)c(C2=Nc3cn[nH]c3-c3cnn4c3N2CCC4)c1F" and give its recorded IC50.
output: < 10 nM

input: Consider the compound "COc1cc(F)c(C2=Nc3cn[nH]c3-c3cc(C(F)(F)F)cc4[nH]cc2c34)c(F)c1" and give its recorded IC50.
output: 10 to 100 nM

---

system under test: G2019S human LRRK2, catalytic site (Homo sapiens, UniProt Q5S007, G2019S)
Construct: G2019S human LRRK2, catalytic site
Sequence (Q5S007 1879-2138 G2019S limits assumed): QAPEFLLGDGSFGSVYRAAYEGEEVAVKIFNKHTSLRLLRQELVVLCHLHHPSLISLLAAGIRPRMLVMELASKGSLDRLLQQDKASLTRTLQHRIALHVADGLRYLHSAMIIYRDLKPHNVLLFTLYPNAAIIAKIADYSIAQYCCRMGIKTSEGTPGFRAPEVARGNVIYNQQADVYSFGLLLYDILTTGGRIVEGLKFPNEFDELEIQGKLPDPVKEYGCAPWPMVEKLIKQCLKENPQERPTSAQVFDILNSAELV
measurement protocol: TR-FRET LanthaScreen Eu Kinase Binding Assay, LRRK2 G2019S (Example 72)
condition context: Example 72 text; one statement for LRRK2 (Wt) and LRRK2 (G2019); read-out: IC50, Inhibitory Activity Toward LRRK2 (G2019)
pIC50: −log10 of the molar value.
observation type: pIC50

input: Consider the compound Fc1cccc(F)c1C1=Nc2cn[nH]c2-c2cccc3nnn1c23 [Compound 304] and give its recorded pIC50.
output: 7.00 to 8.00

input: Consider the compound Fc1cc2c3c(cnn3C(c3c(F)cccc3F)=Nc3c[nH]nc3-2)c1 [Compound 314] and give its recorded pIC50.
output: 6.00 to 7.00

input: Consider the compound Fc1cccc(F)c1C1=Nc2c[nH]nc2-c2cccc3ncn1c23 [Compound 301] and give its recorded pIC50.
output: > 8.00

input: Consider the compound Fc1cccc(F)c1C1=Nc2c[nH]nc2-c2cccc3cnn1c23 [Compound 302] and give its recorded pIC50.
output: > 8.00

input: Consider the compound Fc1ccccc1C1=Nc2c[nH]nc2-c2cccc3cnn1c23 [Compound 316] and give its recorded pIC50.
output: 7.00 to 8.00

input: Consider the compound CC(=O)n1cc2c3c(cccc31)-c1n[nH]cc1N=C2c1c(F)cccc1F [Compound 311] and give its recorded pIC50.
output: 7.00 to 8.00

Continuing:
input: Consider the compound Fc1cccc(F)c1C1=Nc2cn[nH]c2-c2cnn3c2N1CCC3 [Compound 308] and give its recorded pIC50.
output: > 8.00

input: Consider the compound Fc1ccc(F)c(C2=Nc3c[nH]nc3-c3cccc4cnn2c34)c1 [Compound 315] and give its recorded pIC50.
output: > 8.00

input: Consider the compound Fc1cccc(F)c1C1=Nc2cn[nH]c2-c2cncc3ncn1c23 [Compound 303] and give its recorded pIC50.
output: 6.00 to 7.00

input: Consider the compound Clc1cccc(Cl)c1C1=Nc2c[nH]nc2-c2cccc3cnn1c23 [Compound 309] and give its recorded pIC50.
output: > 8.00

input: Consider the compound Fc1cccc(Cl)c1C1=Nc2cn[nH]c2-c2cccc3cnn1c23 [Compound 306] and give its recorded pIC50.
output: 7.00 to 8.00
